// reported Kd for each item listed
molecular target: cynomolgus BCMA (cynomolgus (given as cyBCMA, Cyno)); assay: SPR, IgG immobilized, cyno BCMA analyte, 37 C
Sequence (chain, as listed by the source): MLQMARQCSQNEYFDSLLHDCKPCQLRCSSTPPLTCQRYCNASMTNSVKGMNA
// return numeric value only (unit: nM, not printed)

A02_Rd4_6nM_C04 (antibody, V domains shown) VH: EVQLLESGGGLVQPGGSLRLSCAASGFTFSSYAMNWVRQAPGKGLEWVSAIMSSGGPLYYADSVKGRFTISRDNSKNTLYLQMNSLRAEDTAVYYCARYWPMALWGQGTLVTVSS VL: EIVLTQSPGTLSLSPGERATLSCRASQSVSALYLAWYQQKPGQAPRLLMYDASIRATGIPDRFSGSGSGTDFTLTISRLEPEDFAVYYCQQYQVWPLTFGQGTKVEIK : 0.381
A02_Rd4_6nM_C19 (antibody, V domains shown) VH: EVQLLESGGGLVQPGGSLRLSCAASGFTFSSYAMNWVRQAPGKGLEWVSAISDSGGSRWYADSVKGRFTISRDNSKNTLYLQMNSLRAEDTAVYYCARYWPMSDWGQGTLVTVSS VL: EIVLTQSPGTLSLSPGERATLSCRASQSVSVLYLAWYQQKPGQAPRLLMYDASIRATGIPDRFSGSGSGTDFTLTISRLEPEDFAVYYCQQYLAWPLTFGQGTKVEIK : 0.26
A02_Rd4_6nM_C08 (antibody, V domains shown) VH: EVQLLESGGGLVQPGGSLRLSCAASGFTFSSYAMNWVRQAPGKGLEWVSAILDSGGSTYYADSVKGRFTISRDNSKNTLYLQMNSLRAEDTAVYYCARYWPMSPWGQGTLVTVSS VL: EIVLTQSPGTLSLSPGERATLSCRASQSVSFLYLAWYQQKPGQAPRLLMYDASIRATGIPDRFSGSGSGTDFTLTISRLEPEDFAVYYCQQYGSWPLTFGQGTKVEIK : 5.07

Problem: For A02_Rd4_0.6nM_C18 (antibody, V domains shown) VH: EVQLLESGGGLVQPGGSLRLSCAASGFTFSSYAMNWVRQAPGKGLEWVSAVLDSGGSTYYADSVKGRFTISRDNSKNTLYLQMNSLRAEDTAVYYCARYWPMSLWGQGTLVTVSS VL: EIVLTQSPGTLSLSPGERATLSCRASQSVSELYLAWYQQKPGQAPRLLMYDASIRATGIPDRFSGSGSGTDFTLTISRLEPEDFAVYYCQQYFGWPLTFGQGTKVEIK , what is its reported Kd?
Solution: 0.197
